- test_system: T1, KRAS G13D (G13D-RT6) peptide on HLA-DQA1*05:01 / HLA-DQB1*03:01 (human)
- T1 peptide: YKLVVVGAGDVGKSAL
- assay_method_text: NFAT-luciferase; Jurkat-NFAT-Luc with the TCR and Lovo-DPA0301:DPB0501 cells loaded with G13D-RT6; against wild-type B8.2.4 TCR; full-length, on cells
endpoint: TCR Mut RLU/WT RLU (ratio)
Please state the figure in ratio; there is no need to write the unit.

Q: Param item = B8.2.4 TCR mutant α97R-C (TCR, V domains shown) Valpha: AQKITQTQPGMFVQEKEAVTLDCTYDTSDPSYGLFWYKQPSSGEMIFLIYQGSYDQQNATEGRYSLNFQKARKSANLVISASQLGDSAMYFCAMRECTGTASKLTFGTGTRLQVTL Vbeta: DVKVTQSSRYLVKRTGEKVFLECVQDMDHENMFWYRQDPGLGLRLIYFSYDVKMKEKGDIPEGYSVSREKKERFSLILESASTNQTSMYLCASSQTVPPQHFGDGTRLSIL ; retrieve measured TCR Mut RLU/WT RLU.
Result: 0.27
